Where these numbers come from: patent US20250197372A1

As shown below, each of these molecules has a reported log10(IC50) value.
target: recombinant human GAA (acid alpha-glucosidase) (Homo sapiens, UniProt P10253); assay: Acid alpha-glucosidase (GAA) assay (4-methylumbelliferyl-alpha-D-pyranoside substrate, fluorescence); type: biochemical
Recall that a logarithmic scale is used here: each number is log10 of IC50 in nM.

>>> df
                                   molecule  readout_type  experimental_value
0  OC[C@@H]1[C@@H](O)[C@H](O)[C@@H](O)CN1Cc1ccc(CNc2ccc(CN3CCCO3)cc2)cc1   log10(IC50)                2.90
1  CN(Cc1cccc(CN2C[C@H](O)[C@@H](O)[C@H](O)[C@H]2CO)c1)c1ccc(CN2CCCO2)cc1[N+](=O)[O-]   log10(IC50)                3.06

// log10(IC50) lookup, key: Cc1cc(NCc2ccc(CN3C[C@H](O)[C@@H](O)[C@H](O)[C@H]3CO)cc2)cc(-c2ncccn2)c1
2.07

// log10(IC50) lookup, key: COC(=O)c1cc(Cl)cc(NCCc2ccc(CCN3C[C@H](O)[C@@H](O)[C@H](O)[C@H]3CO)cc2)c1
2.63

// log10(IC50) lookup, key: CC(C)c1cc(CCNc2ccc(N=[N+]=[N-])cc2[N+](=O)[O-])cc(CCN2C[C@H](O)[C@@H](O)[C@H](O)[C@H]2CO)c1
4.00

// log10(IC50) lookup, key: Cc1cc(-c2ncccn2)ccc1NCCCCCCN1C[C@H](O)[C@@H](O)[C@H](O)[C@H]1CO
3.02

// log10(IC50) lookup, key: [N-]=[N+]=Nc1ccc(NCCS(=O)(=O)CCCN2C[C@H](O)[C@@H](O)[C@H](O)[C@H]2CO)c([N+](=O)[O-])c1
2.13

====

biological target: recombinant human GAA (acid alpha-glucosidase) (Homo sapiens); assay: Acid alpha-glucosidase (GAA) assay (4-methylumbelliferyl-alpha-D-pyranoside substrate, fluorescence)
readout.type: pIC50
Would you please state pIC50, meaning minus log10 of the concentration in mol/L, as a bare number?

>>> print(df.to_string())
                                  structure  readout_type  experimental_value
0  OC[C@@H]1[C@@H](O)[C@H](O)[C@@H](O)CN1CCCCCCNc1cc(Cl)cc(-c2cnccn2)c1         pIC50                8.00

// pIC50 lookup, key: CN(Cc1ccc(CN2C[C@H](O)[C@@H](O)[C@H](O)[C@H]2CO)cc1)c1cc(-c2cccnn2)cc(C2CC2)c1
7.04

// pIC50 lookup, key: OC[C@@H]1[C@@H](O)[C@H](O)[C@@H](O)CN1CCCCCCNc1cc(-c2ncccn2)cc(C2CC2)c1
7.21

// pIC50 lookup, key: [N-]=[N+]=Nc1ccc(NCc2cc(CCN3C[C@H](O)[C@@H](O)[C@H](O)[C@H]3CO)cs2)c([N+](=O)[O-])c1
6.64

// pIC50 lookup, key: O=[N+]([O-])c1cc(-c2ccc[nH]2)ccc1NCc1ccc(CN2C[C@H](O)[C@@H](O)[C@H](O)[C@H]2CO)cc1
6.79

// pIC50 lookup, key: OC[C@@H]1[C@@H](O)[C@H](O)[C@@H](O)CN1Cc1cccc(CNc2ccc(Br)cc2)c1
5.55

// pIC50 lookup, key: CS(=O)(=O)c1cc(NCc2ccc(CN3C[C@H](O)[C@@H](O)[C@H](O)[C@H]3CO)cc2)cc(-c2cccnn2)c1
7.11

====

biological target: rat sucrase (partially purified alpha-glucosidase from intestinal rat powder) (Rattus norvegicus, UniProt P23739)
Sequence (P23739 whole entry): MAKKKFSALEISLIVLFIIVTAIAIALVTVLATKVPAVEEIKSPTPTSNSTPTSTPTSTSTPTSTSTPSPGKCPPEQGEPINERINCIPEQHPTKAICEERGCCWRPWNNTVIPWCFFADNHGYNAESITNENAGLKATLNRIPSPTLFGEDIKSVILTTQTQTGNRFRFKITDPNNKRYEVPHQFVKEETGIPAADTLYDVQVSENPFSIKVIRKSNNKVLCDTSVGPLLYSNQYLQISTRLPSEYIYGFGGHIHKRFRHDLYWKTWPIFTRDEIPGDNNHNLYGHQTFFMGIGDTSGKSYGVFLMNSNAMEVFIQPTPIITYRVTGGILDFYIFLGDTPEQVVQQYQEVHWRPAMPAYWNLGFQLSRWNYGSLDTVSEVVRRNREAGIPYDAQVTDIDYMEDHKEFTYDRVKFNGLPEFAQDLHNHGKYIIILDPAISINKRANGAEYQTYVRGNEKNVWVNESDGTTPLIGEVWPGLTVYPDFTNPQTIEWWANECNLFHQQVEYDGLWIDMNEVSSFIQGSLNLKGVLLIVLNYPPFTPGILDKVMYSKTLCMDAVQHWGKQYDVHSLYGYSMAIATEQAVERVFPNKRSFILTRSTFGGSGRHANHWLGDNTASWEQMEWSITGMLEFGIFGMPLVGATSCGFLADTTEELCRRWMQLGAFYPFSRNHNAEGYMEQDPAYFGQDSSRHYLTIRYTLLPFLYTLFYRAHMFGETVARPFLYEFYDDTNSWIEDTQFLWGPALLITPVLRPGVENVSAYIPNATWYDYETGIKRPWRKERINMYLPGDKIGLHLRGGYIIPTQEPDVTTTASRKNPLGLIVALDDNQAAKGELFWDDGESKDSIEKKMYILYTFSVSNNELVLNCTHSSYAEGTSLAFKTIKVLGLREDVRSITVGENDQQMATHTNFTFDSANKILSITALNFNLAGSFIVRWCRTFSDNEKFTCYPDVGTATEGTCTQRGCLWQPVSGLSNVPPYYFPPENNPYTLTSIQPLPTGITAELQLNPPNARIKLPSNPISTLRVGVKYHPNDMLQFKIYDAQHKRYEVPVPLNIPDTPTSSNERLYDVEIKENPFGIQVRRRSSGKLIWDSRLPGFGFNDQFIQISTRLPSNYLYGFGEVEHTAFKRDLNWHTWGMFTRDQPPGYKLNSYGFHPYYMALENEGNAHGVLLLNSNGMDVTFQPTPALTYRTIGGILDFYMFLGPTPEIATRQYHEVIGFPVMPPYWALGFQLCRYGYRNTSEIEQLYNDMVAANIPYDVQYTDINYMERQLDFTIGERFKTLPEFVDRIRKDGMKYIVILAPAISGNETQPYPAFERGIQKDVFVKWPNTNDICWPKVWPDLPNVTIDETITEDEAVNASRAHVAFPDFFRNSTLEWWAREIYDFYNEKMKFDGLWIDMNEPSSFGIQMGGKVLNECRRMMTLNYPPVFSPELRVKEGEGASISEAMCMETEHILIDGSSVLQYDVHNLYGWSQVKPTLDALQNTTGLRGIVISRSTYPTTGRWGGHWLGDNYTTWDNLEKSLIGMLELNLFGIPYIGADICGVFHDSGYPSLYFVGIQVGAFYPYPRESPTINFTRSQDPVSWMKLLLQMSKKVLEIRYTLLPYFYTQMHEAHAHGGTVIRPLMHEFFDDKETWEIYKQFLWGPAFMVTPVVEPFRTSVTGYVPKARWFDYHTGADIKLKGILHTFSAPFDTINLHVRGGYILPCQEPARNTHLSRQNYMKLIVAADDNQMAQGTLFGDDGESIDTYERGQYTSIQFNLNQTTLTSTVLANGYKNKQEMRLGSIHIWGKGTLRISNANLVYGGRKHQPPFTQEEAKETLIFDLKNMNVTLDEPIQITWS
As shown below, each of these compounds has a reported IC50 value.
State just the number; it will be interpreted in nM.

# count of solved cases: 6
>>> print(df.to_string())
                                   compound  experimental_value
0  OC[C@@H]1[C@@H](O)[C@H](O)[C@@H](O)CN1Cc1cccc(CNc2ccc(-c3ccc[nH]3)cc2)c1 [Compound 1082]                  25
1  OC[C@@H]1[C@@H](O)[C@H](O)[C@@H](O)CN1Cc1ccc(CNc2ccc(C3=COCCO3)cc2)cc1 [Compound 1093]                   7
2  COC(=O)c1cc(Cl)cc(NCCc2ccc(CCN3C[C@H](O)[C@@H](O)[C@H](O)[C@H]3CO)cc2)c1 [Compound 1116]                1230
3  Cc1cc(NCc2cccc(CN3C[C@H](O)[C@@H](O)[C@H](O)[C@H]3CO)c2)cc(-c2ccc[nH]2)c1 [Compound 1033]                  34
4  COc1ccc(CCCCCN2C[C@H](O)[C@@H](O)[C@H](O)[C@H]2CO)cc1 [Compound 1310]                 371
5  COCCCCCN(CCCNc1ccc(N=[N+]=[N-])cc1[N+](=O)[O-])CCCN1C[C@H](O)[C@@H](O)[C@H](O)[C@H]1CO [Compound 1221]                 424

// IC50 lookup, key: COc1cc(NCCCCCCN2C[C@H](O)[C@@H](O)[C@H](O)[C@H]2CO)cc(-c2ncco2)c1 [Compound 1216]
796

// IC50 lookup, key: O=[N+]([O-])c1cc(N2CCOCC2)ccc1NCc1cccc(CN2C[C@H](O)[C@@H](O)[C@H](O)[C@H]2CO)c1 [Compound 1067]
80

// IC50 lookup, key: [N-]=[N+]=Nc1ccc(NCCOCCN2C[C@H](O)[C@@H](O)[C@H](O)[C@H]2CO)c([N+](=O)[O-])c1 [Compound 1255]
56

// IC50 lookup, key: N#Cc1cc(NCc2cccc(CN3C[C@H](O)[C@@H](O)[C@H](O)[C@H]3CO)c2)cc(-c2cccnn2)c1 [Compound 1046]
52

// IC50 lookup, key: CN(Cc1ccc(CN2C[C@H](O)[C@@H](O)[C@H](O)[C@H]2CO)cc1)c1cc(-c2cccnn2)cc(C2CC2)c1 [Compound 1001]
15

====

As shown below, each of these compounds has a reported pIC50 value.
biological target: recombinant alpha-glucosidase II (murine full-length glucosidase II, alpha and beta subunits, Glu 2) (Mus musculus, UniProt Q8BHN3); construct: made in house; host or cells: HEK-293T cells transduced with BacMam viruses (75% alpha, 25% beta); protein harvested from culture supernatant; assay: Alpha-glucosidase II assay (4-methylumbelliferyl-alpha-D-pyranoside substrate, fluorescence); format: biochemical; details: Glucosidase 2; read-out: Glu2 IC50
Sequence (O08795 15-521): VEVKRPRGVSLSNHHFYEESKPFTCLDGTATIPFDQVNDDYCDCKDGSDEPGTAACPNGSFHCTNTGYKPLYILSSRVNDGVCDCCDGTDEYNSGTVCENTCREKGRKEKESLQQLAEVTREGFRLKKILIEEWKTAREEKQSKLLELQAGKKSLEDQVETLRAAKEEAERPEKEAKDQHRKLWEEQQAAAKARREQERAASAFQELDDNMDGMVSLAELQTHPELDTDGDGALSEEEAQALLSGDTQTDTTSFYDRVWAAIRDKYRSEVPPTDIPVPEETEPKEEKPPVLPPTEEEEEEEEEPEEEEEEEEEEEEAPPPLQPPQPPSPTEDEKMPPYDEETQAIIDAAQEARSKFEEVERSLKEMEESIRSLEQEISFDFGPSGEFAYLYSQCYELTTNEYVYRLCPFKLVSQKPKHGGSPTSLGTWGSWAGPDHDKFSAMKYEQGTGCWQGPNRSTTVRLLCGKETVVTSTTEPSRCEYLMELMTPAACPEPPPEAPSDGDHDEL
Sequence (Q8BHN3 33-944): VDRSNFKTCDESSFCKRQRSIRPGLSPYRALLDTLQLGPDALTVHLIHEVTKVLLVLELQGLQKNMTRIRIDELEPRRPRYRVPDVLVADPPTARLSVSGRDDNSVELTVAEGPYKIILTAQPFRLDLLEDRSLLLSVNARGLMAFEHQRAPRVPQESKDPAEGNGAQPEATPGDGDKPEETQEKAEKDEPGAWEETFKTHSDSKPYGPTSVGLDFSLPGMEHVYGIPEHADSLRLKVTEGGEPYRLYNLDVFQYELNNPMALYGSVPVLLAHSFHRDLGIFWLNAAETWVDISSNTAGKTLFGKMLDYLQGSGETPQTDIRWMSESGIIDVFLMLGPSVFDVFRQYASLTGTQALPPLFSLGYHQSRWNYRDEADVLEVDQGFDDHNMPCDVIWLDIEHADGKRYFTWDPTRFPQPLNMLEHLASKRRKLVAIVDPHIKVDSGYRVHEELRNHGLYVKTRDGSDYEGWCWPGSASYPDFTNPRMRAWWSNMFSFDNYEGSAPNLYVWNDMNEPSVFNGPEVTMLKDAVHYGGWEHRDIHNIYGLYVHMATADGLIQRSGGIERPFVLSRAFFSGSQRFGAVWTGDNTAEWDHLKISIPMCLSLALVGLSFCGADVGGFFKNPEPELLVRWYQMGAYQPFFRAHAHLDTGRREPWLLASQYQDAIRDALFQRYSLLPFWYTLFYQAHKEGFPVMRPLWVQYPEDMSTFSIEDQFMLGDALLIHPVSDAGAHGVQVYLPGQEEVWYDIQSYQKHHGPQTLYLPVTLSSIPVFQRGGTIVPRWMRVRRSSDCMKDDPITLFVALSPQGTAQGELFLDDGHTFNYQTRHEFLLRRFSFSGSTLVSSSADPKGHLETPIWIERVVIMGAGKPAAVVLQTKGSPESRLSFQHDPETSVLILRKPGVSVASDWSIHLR
Would you please state pIC50, meaning minus log10 of the concentration in mol/L, as a bare number?

# count of solved cases: 2
>>> df
                                  structure  experimental_value
0  O=[N+]([O-])c1cc(N2CCOCC2)ccc1NCc1cccc(CN2C[C@H](O)[C@@H](O)[C@H](O)[C@H]2CO)c1                4.89
1  OC[C@@H]1[C@@H](O)[C@H](O)[C@@H](O)CN1CCCCCCNc1ccc(-c2ncccn2)cc1C(F)(F)F                7.51

// pIC50 lookup, key: [N-]=[N+]=Nc1ccc(NCCOC(=O)NCCN2C[C@H](O)[C@@H](O)[C@H](O)[C@H]2CO)c([N+](=O)[O-])c1
7.49

// pIC50 lookup, key: [N-]=[N+]=Nc1ccc(NCCc2cc(CCN3C[C@H](O)[C@@H](O)[C@H](O)[C@H]3CO)cc(C3CCCCC3)c2)c([N+](=O)[O-])c1
5.97

// pIC50 lookup, key: OC[C@@H]1[C@@H](O)[C@H](O)[C@@H](O)CN1CCCCCCNc1cc(Cl)cc(-c2ncco2)c1
8.70

// pIC50 lookup, key: COc1ccc(-c2ccc(CN3C[C@H](O)[C@@H](O)[C@H](O)[C@H]3CO)cc2)cc1
4.36

// pIC50 lookup, key: [N-]=[N+]=Nc1ccc(NCCc2nccc(CCN3C[C@H](O)[C@@H](O)[C@H](O)[C@H]3CO)n2)c([N+](=O)[O-])c1
5.94

// pIC50 lookup, key: OC[C@@H]1[C@@H](O)[C@H](O)[C@@H](O)CN1CCCCCCNc1cc(C2CC2)cc(N2CCOCC2)c1
9.00

====

molecular target: recombinant alpha-glucosidase II (murine full-length glucosidase II, alpha and beta subunits, Glu 2) (Mus musculus, UniProt Q8BHN3); construct: made in house; host or cells: HEK-293T cells transduced with BacMam viruses (75% alpha, 25% beta); protein harvested from culture supernatant; assay: Alpha-glucosidase II assay (4-methylumbelliferyl-alpha-D-pyranoside substrate, fluorescence); assay type: biochemical; details: Glucosidase 2; read-out: Glu2 IC50
As shown below, each of these compounds has a reported IC50 value.
State just the number; it will be interpreted in nM.

>>> print(df.to_string())
                                   compound  experimental_value
0  CS(=O)(=O)c1cc(NCCCCCCN2C[C@H](O)[C@@H](O)[C@H](O)[C@H]2CO)cc(-c2ncccn2)c1 [Compound 1128]                   1
1  CS(C)=NS(=O)(=O)c1cc(-c2ncccn2)ccc1NCCCCCCN1C[C@H](O)[C@@H](O)[C@H](O)[C@H]1CO [Compound 1247]                   6
2  COc1cc(-c2ncco2)ccc1NCCCCCCN1C[C@H](O)[C@@H](O)[C@H](O)[C@H]1CO [Compound 1207]                  14
3  [N-]=[N+]=Nc1ccc(NCC[C@H]2CC[C@@H](CCN3C[C@H](O)[C@@H](O)[C@H](O)[C@H]3CO)CC2)c([N+](=O)[O-])c1 [Compound 1106]                   9
4  [N-]=[N+]=Nc1ccc(N2CCN(CCN3C[C@H](O)[C@@H](O)[C@H](O)[C@H]3CO)CC2)c([N+](=O)[O-])c1 [Compound 1254]                 865

// IC50 lookup, key: Cc1cc(NCc2cccc(CN3C[C@H](O)[C@@H](O)[C@H](O)[C@H]3CO)c2)cc(-c2cccnn2)c1 [Compound 1034]
10000
